System: SF-268 CNS
Test: NCI tumour cell line growth inhibition, 48 h

molecule	TGI
CC1C2(C)OC(=N)C(C#N)(C(C)O2)C1(C#N)C#N (centres undefined)	> 100 µM
COc1cc([C@@H]2c3cc4c(cc3[C@@H](OC3OC5COC(C)OC5C(OC(=O)CN5CCN(C)CC5)C3OC(=O)CN3CCN(C)CC3)C3COC(=O)[C@@H]32)OCO4)cc(OC)c1OC(=O)CN1CCN(C)CC1 (some centres undefined)	> 100 µM
COc1nc(N)nc2c1ncn2[C@@H]1O[C@H](CO)[C@@H](O)[C@@H]1O	> 100 µM
CC(=O)OC1CC2C(C)(C)C(=O)C=C[C@]2(C)C2CCC3(C)C(c4ccoc4)[C@@H](O)[C@H]4O[C@]43[C@]12C (some centres undefined)	51.8 µM
O=C1C(c2c(O)[nH]c3ccccc23)=Nc2ccc(Br)cc21	90.2 µM
O=c1c2cc(-c3ccccc3)cnc2sn1-c1ccc(Oc2ccccc2)cc1	> 100 µM
NCCCNCCSSC/C=C\CSSCCNCCCN	> 100 µM
O=S(=O)(CCNCc1ccc(-c2ccc3ncnc(Nc4ccc(OCc5cccc(F)c5)c(Cl)c4)c3c2)o1)c1ccccc1	> 25 µM
O=C(O)c1ccccc1-c1ccccc1C(=O)Nc1ccc2c(c1)[nH]c(=O)c1ccccc12	> 100 µM

====

Test system: EKVX NSCLC
Experiment: NCI tumour cell line growth inhibition, 48 h
measurement type: TGI

>>> df
                                   compound  experimental_system  measurement_type  observed_value
0  CCOC(=O)N1CCN(c2nc(C)n(-c3ccccc3)c(=S)c2C#N)CC1           EKVX NSCLC               TGI        > 100 µM
1  O=C1/C(=C/c2ccccc2F)CN(C(=O)C(Cl)Cl)C/C1=C\c1ccccc1F           EKVX NSCLC               TGI         2.06 µM
2  COC(=O)C1=C(c2ccc3c(c2)OCO3)OC(c2ccc3c(c2)OCO3)C1 (stereo not given)           EKVX NSCLC               TGI        > 100 µM
3  CC1C2(C)OC(=N)C(C#N)(C(C)O2)C1(C#N)C#N (stereo not given)           EKVX NSCLC               TGI        > 100 µM
4  c1ccc2sc(C3(N4CCC5(CC4)OCCO5)CCCCC3)cc2c1           EKVX NSCLC               TGI        > 100 µM

====

System: SF-295 CNS
Assay: NCI tumour cell line growth inhibition, 48 h
# maps each entry to its TGI
measurement type: TGI

>>> df
                                    molecule  measurement_type  observed_value
 0  C=C(C)[C@@H]1CCC2=C[C@H](OC2=O)[C@@]2(C)C[C@@H]2C(=O)/C=C(/C)C(=O)[C@H]1OC(C)=O               TGI        > 100 µM
 1  CSc1nc2c(c(=O)[nH]1)N=C(c1ccc(Cl)cc1)CC(c1ccccc1)N2 (stereo unspecified)               TGI         32.6 µM
 2                Nc1ccc(-c2nc3ccccc3o2)cc1S               TGI         28.8 µM
 3  N#CCCSC(=S)C1CCCC1=N (stereo unspecified)               TGI        > 100 µM
 4  CC1(C)N=C(N)N=C(N)N1c1cccc(CCCCOc2ccccc2)c1               TGI       > 68.4 µM
 5  CC(=O)OC1Oc2cc(C)c(C)cc2-c2oc(=O)c(-c3ccc(F)cc3)cc21 (stereo unspecified)               TGI        > 100 µM
 6  CCC1c2[nH]c3ccccc3c2C[C@H]2C(=O)NC(CCCCNC(=O)OC(C)(C)C)C(=O)N12 (stereo partly specified)               TGI         62.4 µM
 7  COc1ccccc1C(N)c1ccccc1 (stereo unspecified)               TGI        > 100 µM
 8  COc1cc(NC(=O)CSc2nc3ccccc3c(=O)n2CCc2ccccc2)cc(OC)c1OC               TGI         15.3 µM
 9     Cc1sc(Nc2ccccc2[N+](=O)[O-])c(C#N)c1C               TGI        > 100 µM
10  COc1ccc(-c2cc(-c3cc(C)ccc3O)[nH]c(=O)n2)cc1               TGI        > 100 µM

====

System: CCRF-CEM leukemia
Assay: NCI tumour cell line growth inhibition, 48 h
Short version: TGI at least 40 µM is yes, less is no.

molecule	experimental system	category
Cc1cc2cc3cc(C)c(N)cc3[n+](C)c2cc1N	CCRF-CEM leukemia	no
COc1ccc(NC(=O)CC(=O)N2N=C(N(CCC#N)c3cccc(C)c3)CC2c2ccccc2)cc1 (centres undefined)	CCRF-CEM leukemia	yes
CC(=O)OC[C@@]1(C)[C@@H]2[C@@H]3[C@@]4(CO[C@]3(C)C(=O)[C@@]3(O)C[C@H](C)[C@H](OC(C)=O)[C@@H]3[C@H]4OC(C)=O)[C@H](OC(=O)c3ccccc3)C[C@@H]21	CCRF-CEM leukemia	yes
N#Cc1c(-c2cccc(Cl)c2)cc(-c2ccc(Cl)cc2)nc1N	CCRF-CEM leukemia	yes
O=C1C2=Cc3ccccc3OC2(O)Oc2ccc(O)cc21 (centres undefined)	CCRF-CEM leukemia	yes
COc1ccc(-c2cc(-c3cc(C)ccc3O)[nH]c(=O)n2)cc1	CCRF-CEM leukemia	yes
CCOC(=O)N/N=C(\Cc1ccc([N+](=O)[O-])cc1)OCC	CCRF-CEM leukemia	yes
N#Cc1c(N)nc(NCc2ccccc2)c(C#N)c1-c1ccccc1Cl	CCRF-CEM leukemia	yes
O=C(NC1CCCCC1)NS(=O)(=O)c1ccc(-n2nc3c(c2-c2ccc(Cl)cc2)Cc2ccccc2-3)cc1	CCRF-CEM leukemia	no

====

Tested on: M14 melanoma
Assay: NCI tumour cell line growth inhibition, 48 h
# maps each entry to its GI50
measurement type: GI50

In [3]: df
Out[3]:
                                   compound  observed_value
0  COc1ccc(-c2nn(-c3cccc(NC(=O)c4cccc(C(F)(F)F)c4)c3)cc2-c2ccncc2)cc1Cl         2.23 µM
1  CC1(C)N=C(N)N=C(N)N1c1cccc(CCCCOc2ccccc2)c1       0.0958 µM
2  O=C1CCC(N2Cc3c(C#CCCCNC(=O)c4cc5c(o4)C(=O)c4ccccc4C5=O)cccc3C2=O)C(=O)N1 (centres undefined)         1.85 µM
3  CS(=O)(=O)c1ccc(Oc2cc(F)cc(C#N)c2)c2c1[C@H](O)C(F)(F)C2        > 100 µM

====

Test system: RXF 393 renal
Test: NCI tumour cell line growth inhibition, 48 h
# maps each entry to its TGI
measurement type: TGI

>>> df
                                    compound  observed_value
 0  CC(C(=O)O)/C(=C\c1ccc2c(c1)OCO2)C(=O)O (stereo not given)        > 100 µM
 1  CCCCCCCCCCCCCCCCCC(=O)OCC(COC1OC(CS(=O)(=O)O)C(O)C(O)C1O)OC(=O)CCCCCCCCCCCCCCCCC (stereo not given)        > 100 µM
 2  N#Cc1c(N)nc(NCc2ccccc2)c(C#N)c1-c1ccccc1Cl        > 100 µM
 3  CC(=O)C1=C(C)N2C(=NC3=C(CCc4ccccc43)C2c2cccc(Br)c2)S1 (stereo not given)        > 100 µM
 4  C=C1CC2CC(=O)C(O)C(C1)C2 (stereo not given)        > 100 µM
 5  N#Cc1c(-c2cccc(Cl)c2)cc(-c2ccc(Cl)cc2)nc1N         32.3 µM
 6  O=C(NC1CCCCC1)NS(=O)(=O)c1ccc(-n2nc3c(c2-c2ccc(Cl)cc2)Cc2ccccc2-3)cc1         75.2 µM
 7  C=C(Br)C(C)(Br)CCC(Br)C(C)(C)Br (stereo not given)        > 100 µM
 8  COc1ccc(OC)c(/C=C2\COc3ccc(O)c(O)c3C2=O)c1         3.58 µM
 9  Nc1cccc2c1C1=NNC(=O)CC1C2 (stereo not given)        > 100 µM
10  COc1ccc(NC(=O)CC(=O)N2N=C(N(CCC#N)c3cccc(C)c3)CC2c2ccccc2)cc1 (stereo not given)        > 100 µM
11   Cn1c(=O)cc(N=Nc2ccc(Cl)c(Cl)c2)[nH]c1=O         63.6 µM
12  COC(=O)C1=C(c2ccc3c(c2)OCO3)OC(c2ccc3c(c2)OCO3)C1 (stereo not given)        > 100 µM
13  Clc1ccc(C2=NN[C@H](c3cn(-c4ccccc4)nc3-c3ccccc3)C2)cc1         8.08 µM
14  Cc1c(C(=O)/C=C/c2c(Cl)cccc2Cl)c(=O)n(-c2ccccc2)n1C         20.4 µM
15  CCOC(=O)N1CCN(c2nc(C)n(-c3ccccc3)c(=S)c2C#N)CC1        > 100 µM
16  CC(C)(C)C1(O)C=C(O)C(=O)N1NC(=O)c1ccccc1Nc1ccccc1 (stereo not given)        > 100 µM
17  CC(C)(C)OC(=O)CC(NC(=O)OC(C)(C)C)C(=O)NC(C(=O)O)C(O)c1ccccc1 (stereo not given)        > 100 µM
18  Cc1sc(NC2=NC(=O)/C(=C\c3ccccc3)S2)nc1-c1nc(NC2=NC(=O)/C(=C\c3ccccc3)S2)sc1C       > 40.2 µM
19  CC(C)[Si](OC1=C(c2ccccc2)C(NC(=O)/C=C/c2ccc([N+](=O)[O-])cc2)CCC1)(C(C)C)C(C)C (stereo not given)        > 100 µM
